TARGET OF ASSAY: cdk4 (Homo sapiens)
Sequence (P11802 whole entry): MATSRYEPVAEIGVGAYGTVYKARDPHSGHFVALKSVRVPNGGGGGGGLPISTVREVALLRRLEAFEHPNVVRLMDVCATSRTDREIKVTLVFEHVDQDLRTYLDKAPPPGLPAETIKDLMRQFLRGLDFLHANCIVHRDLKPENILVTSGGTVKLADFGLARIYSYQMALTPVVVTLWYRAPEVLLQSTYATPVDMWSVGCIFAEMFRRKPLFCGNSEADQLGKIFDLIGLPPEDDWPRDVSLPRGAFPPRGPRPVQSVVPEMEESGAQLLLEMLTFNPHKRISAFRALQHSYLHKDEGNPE
Sequence (P24385 whole entry partner): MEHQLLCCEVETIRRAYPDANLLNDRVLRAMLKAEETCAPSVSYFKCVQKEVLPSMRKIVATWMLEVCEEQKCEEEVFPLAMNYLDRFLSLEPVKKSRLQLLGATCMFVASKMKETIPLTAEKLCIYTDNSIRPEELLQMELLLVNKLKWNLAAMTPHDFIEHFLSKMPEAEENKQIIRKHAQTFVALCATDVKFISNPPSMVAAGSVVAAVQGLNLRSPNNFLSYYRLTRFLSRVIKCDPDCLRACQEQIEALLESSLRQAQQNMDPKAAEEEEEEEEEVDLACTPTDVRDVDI
MEASUREMENT PROTOCOL: In vitro inhibition of cdk4 using a scintillant proximity assay (CDK4 SPA, Ex. C1)
Type: biochemical
MEASUREMENT CONDITIONS: GST-pRb substrate, 33P-ATP, room temperature 30 minutes; read-out: CDK4 SPA (Ex. C1): pIC50 values (converted)
Text: In Vitro Inhibition of cdk4 using a Scintillant Proximity Assay The scintillant proximity assay (SPA) is in general described in U.S. Pat. No. 4,568,649 (Amersham Pharmacia Biotech). […] (^33P) phosporylation of the substrate is subsequently measured as light energy emitted using glutathione-coated SPA beads (Amersham Pharmacia Biotech) by trapping and quantifying the binding of the GST tagged and radiolabeled restinoblastoma protein. […]
Record form. Attribute: IC50. Fill in for each entry.
Give bare numbers, in nM.

Sample answers from the record:
> print(dat)
                           structure.string  property  reading.unit  reported.measurement
1  Cn1c(=O)nc2n(C3CCCC3)nc(-c3ccc(-c4ccc(CN5CCCC5)cc4)o3)nc-2c1=O      IC50            nM                  51.9
2  Cn1c(=O)nc2n(C3CCCC3)nc(-c3ccc(-c4ccc(CNC(CO)(CO)CO)cc4)o3)nc-2c1=O      IC50            nM                  78.3
3  Cn1c(=O)nc2n(C3CCCC3)nc(-c3ccc(-c4ccc(CN(CCO)CCO)cc4)o3)nc-2c1=O      IC50            nM                   111

Read the entry Cn1c(=O)nc2n(C3CCCC3)nc(-c3ccc(-c4ccc(CNCc5cccnc5)cc4)o3)nc-2c1=O and write its reported IC50.
91

---

TARGET OF ASSAY: CDC25B (Homo sapiens, UniProt P30305)
Sequence (P30305 whole entry): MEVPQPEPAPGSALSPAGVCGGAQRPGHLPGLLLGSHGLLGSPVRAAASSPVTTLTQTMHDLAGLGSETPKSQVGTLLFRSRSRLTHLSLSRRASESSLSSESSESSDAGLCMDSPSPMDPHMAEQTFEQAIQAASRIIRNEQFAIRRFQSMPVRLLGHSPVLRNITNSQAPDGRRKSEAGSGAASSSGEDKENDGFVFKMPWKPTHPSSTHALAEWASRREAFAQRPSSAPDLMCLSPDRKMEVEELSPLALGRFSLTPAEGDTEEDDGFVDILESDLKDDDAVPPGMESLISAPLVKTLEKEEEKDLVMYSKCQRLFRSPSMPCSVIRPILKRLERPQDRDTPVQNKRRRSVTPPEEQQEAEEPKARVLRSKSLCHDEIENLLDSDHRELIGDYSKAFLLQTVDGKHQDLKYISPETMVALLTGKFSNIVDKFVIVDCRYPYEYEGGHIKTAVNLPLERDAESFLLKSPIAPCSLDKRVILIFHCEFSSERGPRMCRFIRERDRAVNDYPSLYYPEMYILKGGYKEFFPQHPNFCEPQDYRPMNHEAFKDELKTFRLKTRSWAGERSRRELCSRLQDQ
MEASUREMENT PROTOCOL: In vitro inhibition of CDC25B using the fluorogenic substrate 3-OMFP (CDC25B WT, Ex. C5)
Assay type: biochemical
PROPERTY: IC50 (nM)
Numbers only, in nM.

Read the entry Cn1c(=O)nc2n(C3CCCC3)nc(-c3ccc(-c4ccc(OCCN5CCOCC5)cc4)o3)nc-2c1=O and write its reported IC50.
18.9

---

TARGET OF ASSAY: AKT3 (Homo sapiens, UniProt Q9Y243)
Sequence (Q9Y243 whole entry): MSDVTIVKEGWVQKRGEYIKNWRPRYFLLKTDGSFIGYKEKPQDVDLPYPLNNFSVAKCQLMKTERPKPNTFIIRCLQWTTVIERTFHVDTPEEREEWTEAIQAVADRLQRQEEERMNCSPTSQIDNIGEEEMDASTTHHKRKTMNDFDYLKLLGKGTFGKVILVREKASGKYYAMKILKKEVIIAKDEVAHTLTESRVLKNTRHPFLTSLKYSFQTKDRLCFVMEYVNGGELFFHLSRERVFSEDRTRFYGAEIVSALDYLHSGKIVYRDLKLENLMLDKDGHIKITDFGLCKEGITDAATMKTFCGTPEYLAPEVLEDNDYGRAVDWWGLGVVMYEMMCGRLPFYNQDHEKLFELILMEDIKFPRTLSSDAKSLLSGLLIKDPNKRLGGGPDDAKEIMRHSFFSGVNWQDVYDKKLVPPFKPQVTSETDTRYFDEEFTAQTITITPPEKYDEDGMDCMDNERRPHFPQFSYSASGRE
MEASUREMENT PROTOCOL: Cellular inhibition of AKT3 using an ELISA (AKT cel, Ex. C6)
Type: cell-based
Parameters: endogenous in cells; host or cells: MDA-MB 231
MEASUREMENT CONDITIONS: MDA-MB 231 cells, phosphorylated MAPK ELISA, 30 minutes with compound; read-out: AKT cel (Ex. C6): pIC50 values (converted)
Assign labels as follows, please: class 1 for IC50 below 100 nM; class 0 for IC50 equal to or exceeding 100 nM.

Sample answers from the record:
> print(dat)
                                   molecule    class
1  CC(c1ccccc1)n1nc(-c2ccc(-c3cccc(Cl)c3)o2)nc2c(=O)n(C)c(=O)nc1-2 (stereo not drawn)  class 0
2  Cn1nc(-c2ccc(-c3cccc(CNS(C)(=O)=O)c3)o2)nc2c(=O)n(C)c(=O)nc1-2  class 0

Strictly below 100 nM: is that where IC50 of Cn1c(=O)nc2n(C3CCCC3)nc(-c3ccc(-c4ccc(CN5CCN(CCOCCO)CC5)cc4)o3)nc-2c1=O sits?
class 0

Strictly below 100 nM: is that where IC50 of Cn1c(=O)nc2n(C3CCCC3)nc(-c3ccc(-c4ccc(CNC(CO)(CO)CO)cc4)o3)nc-2c1=O sits?
class 0

Strictly below 100 nM: is that where IC50 of CONCc1ccc(-c2ccc(-c3nc4c(=O)n(C)c(=O)nc-4n(C4CCCC4)n3)o2)cc1 sits?
class 1

---

Record form. Attribute: IC50. Fill in for each entry.
TARGET OF ASSAY: CDC25B (Homo sapiens, UniProt P30305)
MEASUREMENT PROTOCOL: In vitro inhibition of CDC25B using the fluorogenic substrate 3-OMFP (CDC25B WT, Ex. C5)
Assay type: biochemical
MEASUREMENT CONDITIONS: 3-OMFP substrate, 1 hour room temperature; read-out: CDC25B WT (Ex. C5): pIC50 values (converted)
Numbers only, in nM.

Sample answers from the record:
> print(dat)
                                   compound  property  reading.unit  reported.measurement
1  Cn1c(=O)nc2n(C3CCNCC3)nc(-c3ccc(-c4cccc(Cl)c4)o3)nc-2c1=O [Compound 96]      IC50            nM                  9.18
2  CC(c1ccccc1)n1nc(-c2ccc(-c3cccc(Cl)c3)o2)nc2c(=O)n(C)c(=O)nc1-2 (stereo not shown) [Compound 67]      IC50            nM                  21.3
3  Cn1c(=O)nc2n(C3CCCC3)nc(-c3ccc(-c4ccc(S(=O)(=O)N5CCOCC5)cc4)o3)nc-2c1=O [Compound 93]      IC50            nM                    11

Read the entry Cn1c(=O)nc2n(C3CCCC3)nc(-c3ccc(-c4ccc(CNC(CO)(CO)CO)cc4)o3)nc-2c1=O [Compound 126] and write its reported IC50.
93.8

---

Test system: A2780 cell
MEASUREMENT PROTOCOL: Cytotox/survival of A2780 cell after 3 days
Assay type: cell-based
MEASUREMENT CONDITIONS: Homo sapiens, 72 h; A2780 ovarian carcinoma cell line, 3 days; read-out: Cytotox/survival of A2780 cell after 3 days - pIC50 values (converted)
PROPERTY: IC50 (nM)
Numbers only, in nM.

The following compounds each have a reported value; give each one's IC50.
1. Cn1c(=O)nc2n(C3CCCC3)nc(-c3ccc(-c4ccc(CN5CCCC5)cc4)o3)nc-2c1=O [Compound 131]
2. CC(C)n1nc(-c2ccc(-c3ccc(CN(C)CCO)cc3)o2)nc2c(=O)n(C)c(=O)nc1-2 [Compound 87]
3. Cn1c(=O)nc2n(C3CCCC3)nc(-c3ccc(-c4ccc(CN5CCN(CCOCCO)CC5)cc4)o3)nc-2c1=O [Compound 121]
4. CN(CCO)Cc1ccc(-c2ccc(-c3nc4c(=O)n(C)c(=O)nc-4n(C4CCCC4)n3)o2)cc1 [Compound 107]

61.7
61.4
137
60.8

---

PROPERTY: melting point (°C)
One number for each entry, in °C.

Sample answers from the record:
> print(dat)
                                   compound  reported.measurement
1  CN1CCN(C(=O)COc2ccc(-c3ccc(-c4nc5c(=O)n(C)c(=O)nc-5n(C5CCCC5)n4)o3)cc2)CC1 [Compound 119]                   252
2  Cn1c(=O)nc2n(C3CCCC3)nc(-c3ccc(-c4ccc(CN5CCCC5)cc4)o3)nc-2c1=O [Compound 131]                   218
3  COCCN1CCN(Cc2ccc(-c3ccc(-c4nc5c(=O)n(C)c(=O)nc-5n(C5CCCC5)n4)o3)cc2)CC1 [Compound 133]                   186
4  Cn1c(=O)nc2n(C3CCCC3)nc(-c3ccc(-c4ccc(OCCN5CCOCC5)cc4)o3)nc-2c1=O [Compound 117]                   173
5  Cn1c(=O)nc2n(C3CCCC3)nc(-c3ccc(-c4ccc(CO)cc4)o3)nc-2c1=O [Compound 31]                   182
6  CC(C)n1nc(-c2ccc(-c3ccc(CN(C)CCO)cc3)o2)nc2c(=O)n(C)c(=O)nc1-2 [Compound 87]                   229
7  Cn1c(=O)nc2n(C3CCCC3)nc(-c3ccc(-c4ccc(CN(CCO)CCO)cc4)o3)nc-2c1=O [Compound 134]                   242
8  Cn1c(=O)nc2n(C3CCCC3)nc(-c3ccc(-c4ccc(CNC(CO)(CO)CO)cc4)o3)nc-2c1=O [Compound 126]                   241

The following compounds each have a reported value; give each one's melting point.
1. Cn1c(=O)nc2n(C3CCCC3)nc(-c3ccc(-c4ccc(CNCCO)cc4)o3)nc-2c1=O [Compound 113]
2. CONCc1ccc(-c2ccc(-c3nc4c(=O)n(C)c(=O)nc-4n(C4CCCC4)n3)o2)cc1 [Compound 115]
3. Cn1c(=O)nc2n(C3CCCC3)nc(-c3ccc(-c4ccc(CN5CCOCC5)cc4)o3)nc-2c1=O [Compound 94]
4. Cn1c(=O)nc2n(C3CCCC3)nc(-c3ccc(-c4ccc(CN5CCN(CCO)CC5)cc4)o3)nc-2c1=O [Compound 106]
5. COC1CCN(Cc2ccc(-c3ccc(-c4nc5c(=O)n(C)c(=O)nc-5n(C5CCCC5)n4)o3)cc2)CC1 [Compound 132]

[240, 140, 255, 175, 220]

The following compounds each have a reported value; give each one's melting point.
1. Cn1c(=O)nc2n(C3CCCC3)nc(-c3ccc(-c4ccc(CNCc5cccnc5)cc4)o3)nc-2c1=O [Compound 122]
2. Cn1c(=O)nc2n(C3CCCC3)nc(-c3ccc(-c4cccc(CN5CCOCC5)c4)o3)nc-2c1=O [Compound 98]

1. 205
2. 155
